biological target: SMAD7; conditions: ASO; also: test concentration or dose not given here
These antisense oligonucleotides have a phosphorothioate backbone; sugars and methylation of C are not fully specified.
outcomeMeasure: remaining target (mRNA or protein) (fraction of control)

# residueSequence, recordedValue
records = [
    ("GGCAAAAGCCATTCCCCT", 0.72),
    ("AAAACCTGATGTCACCAG", "≥ 1"),
    ("ATTTCCAATGAGAATGCT", "≥ 1"),
    ("ATTCAGCTAGGTGATAAC", "≥ 1"),
    ("ACCTTGTGTACCAACAGC", "≥ 1"),
]

###

target: AKT1; details: ASO
These antisense oligonucleotides have a phosphorothioate backbone; sugars and methylation of C are not fully specified.
outcomeMeasure: remaining target (mRNA or protein) (fraction of control)

# residueSequence, censoringOperator, recordedValue
records = [
    ("CCTAAGCCCCTGGTGACA", "=", 0.85),
    ("CATAATACACAATAACAA", "=", 0.61),
    ("GCCACGATGACTTCCTTC", "=", 0.4),
    ("CACAGAGAAGTTGTTGAG", "=", 0.78),
    ("CCTGAGTTGTCACTGGGT", "=", 0.51),
    ("CGGTCCTCGGAGAACACA", "≥", 1),
    ("ATTTGAACAACATAATAC", "=", 0.89),
    ("CAGGGAGTCAGGGAGGGC", "=", 0.87),
    ("TACTCAGGTGTGCCGCAA", "=", 0.34),
    ("AAAATACTAAAGTTGAAT", "=", 0.75),
    ("GCTGCTGTGTGCCTGCCA", "=", 0.62),
    ("TGCCATCATTCTTGAGGA", "=", 0.35),
    ("GGAGAACAAACTGGATGA", "≥", 1),
    ("GCGGCTGGCTGACAGAGT", "=", 0.39),
    ("AAGTGCTACCGTGGAGAG", "=", 0.43),
    ("AGTCTGGATGGCGGTTGT", "=", 0.51),
    ("TCCTCCTCCTCCTGCTTC", "=", 0.91),
]

###

target: GNAS; details: ASO
These antisense oligonucleotides have a phosphorothioate backbone; sugars and methylation of C are not fully specified.
outcomeMeasure: remaining target (mRNA or protein) (fraction of control)

# residueSequence, studySystem, recordedValue
records = [
    ("GTTTCTTTTATTTCATTTTA", "GNAS", "≥ 1"),
    ("ACACGGCGGATGTTCTCAGT", "GNAS", 0.39),
    ("GTTGCCTTCTCACTGTCTCC", "GNAS", 0.75),
    ("GCGCAGGTGAAATGAGGGTA", "GNAS", 0.9),
    ("TTACTGAAAGTGAGAGGGAA", "GNAS", "≥ 1"),
    ("CATTTTATTTGTTTGCTGCT", "GNAS", 0.65),
    ("TTGCCTTCTCACTGTCTCCA", "GNAS", 0.56),
    ("TTATTTCATTTGTTTCTTTT", "GNAS", 0.64),
    ("TTTTACTGAAAGTGAGAGGG", "GNAS", 0.9),
    ("GCTGCTGCTGTTTTATTTAT", "GNAS", 0.43),
    ("CTTTGGTTGCCTTCTCACTG", "GNAS", 0.55),
    ("ATTTATTTCATTTGTTTCTT", "GNAS", "≥ 1"),
    ("TATTTGTTTGCTGCTGCTGT", "GNAS", "≥ 1"),
    ("GGTTTCGCAAAATCACTCGG", "GNAS", 0.41),
    ("TCATTTGTTTCTTTTATTTC", "GNAS", 0.85),
    ("TTTGGAACATCTAAGCAAGC", "GNAS", 0.97),
]

The values you see were collected from the OligoGym collection.
